- METHOD: single-oral-dose pharmacokinetic study, plasma AVA and metabolite concentrations in pediatric hypercholesterolemia stratified by SLCO1B1 c.521T>C genotype
- Type: in vivo, human
- CONDITION: human, plasma, oral, 10 mg, Table S3; Tanner Pubic Stage 2; mean (± SD); read-out: AUC0-24
MEASURED METRIC: AUC(0-t) (ng·h/mL)
Respond with the bare value in ng·h/mL.

The cases that follow already have their AUC(0-t) on record.
- COMPOUND: "CC(C)c1c(C(=O)Nc2ccccc2O)c(-c2ccccc2)c(-c2ccc(F)cc2)n1CCC1CC(O)CC(=O)O1 (stereo not drawn) [2-Hydroxy Atorvastatin Lactone, 2-hydroxyatorvastatin lactone]"
  MEASURED METRIC: "AUC(0-t)"
  MEAS VALUE: 32.7
- COMPOUND: "CC(C)c1c(C(=O)Nc2ccccc2)c(-c2ccccc2)c(-c2ccc(F)cc2)n1CC[C@@H]1C[C@@H](O)CC(=O)O1"
  MEASURED METRIC: "AUC(0-t)"
  MEAS VALUE: 27.7

For the compound shown here, CC(C)c1c(C(=O)Nc2ccccc2O)c(-c2ccccc2)c(-c2ccc(F)cc2)n1CC[C@@H](O)C[C@@H](O)CC(=O)O [2-Hydroxy Atorvastatin, 2-hydroxyatorvastatin] , give the reported AUC(0-t). 6.7
